tested_system: human recombinant DRD3 (Homo sapiens, UniProt P35462)
Construct: expressed in transfected cells
test_details: intrinsic activity on cells expressing human recombinant DRD3
Assay type: cell-based
condition_context: antagonists <0.10, partial agonists 0.2-0.6, full agonists >0.8
readout_kind: Intrinsic activity

chemical_structure=O=C(NCCCCN1CCN(c2cccc(O)c2)CC1)C1=Cc2ccccc2SC1 quantitative_readout=0.64
chemical_structure=O=C(NCCCCN1CCN(c2cccc3[nH]c(=O)oc23)CC1)C1=Cc2ccccc2OC1 quantitative_readout=0.81
chemical_structure=O=C(NCCCCN1CCN(c2cccc3c2OCC3)CC1)C1=Cc2ccccc2OC1 quantitative_readout=0.26
chemical_structure=CS(=O)(=O)Nc1cccc(N2CCN(CCCCNC(=O)C3=Cc4cc(Cl)ccc4OC3)CC2)c1 quantitative_readout=0
chemical_structure=O=C(NCCCCN1CCN(c2cccc3[nH]ccc23)CC1)C1=Cc2ccccc2OC1 quantitative_readout=0.59
chemical_structure=N#Cc1cccc(N2CCN(CCCCNC(=O)C3=Cc4ccccc4SC3)CC2)c1 quantitative_readout=0.18

###

Collected Ki values appear next to each entry.
tested_system: dopamine D2 receptor (Homo sapiens)
Construct: expressed in transfected cells
Sequence (P14416 whole entry, species assumed): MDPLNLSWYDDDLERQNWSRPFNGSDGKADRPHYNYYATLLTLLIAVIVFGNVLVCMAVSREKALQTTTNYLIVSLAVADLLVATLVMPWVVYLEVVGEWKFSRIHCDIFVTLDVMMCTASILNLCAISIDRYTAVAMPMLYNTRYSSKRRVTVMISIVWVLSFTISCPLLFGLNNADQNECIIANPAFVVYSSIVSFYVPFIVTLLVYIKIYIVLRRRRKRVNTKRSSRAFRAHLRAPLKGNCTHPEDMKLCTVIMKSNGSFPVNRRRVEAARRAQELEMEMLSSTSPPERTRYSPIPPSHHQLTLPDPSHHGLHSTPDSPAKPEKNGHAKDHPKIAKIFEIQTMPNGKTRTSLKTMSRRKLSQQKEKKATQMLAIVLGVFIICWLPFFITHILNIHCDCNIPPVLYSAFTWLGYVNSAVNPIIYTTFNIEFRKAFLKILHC
test_details: inhibition of spiperone[3H] binding in CHO cells, dopamine D2 receptor
condition_context: read-out: pKi D2 (converted)
readout_kind: Ki (µM)

chemical_structure=O=C(NCCCCN1CCN(c2cccc3c2OCCO3)CC1)C1=Cc2ccccc2OC1 quantitative_readout=0.132
chemical_structure=O=C(NCCCCN1CCN(c2cccc(O)c2)CC1)C1=Cc2ccccc2SC1 quantitative_readout=3.8
chemical_structure=O=C(NCCCCN1CCN(c2cccc3[nH]c(=O)oc23)CC1)C1=Cc2ccccc2OC1 quantitative_readout=0.00759
chemical_structure=O=C(NCCCCN1CCN(c2cccc3[nH]ccc23)CC1)C1=Cc2ccccc2OC1 quantitative_readout=0.0933
chemical_structure=O=C(NCCCCN1CCN(c2cccc(C(F)(F)F)c2)CC1)C1=Cc2ccccc2OC1 quantitative_readout=0.447
chemical_structure=O=C(NCCCCN1CCN(c2cccc(Cl)c2Cl)CC1)C1=Cc2ccccc2OC1 quantitative_readout=0.123
chemical_structure=COc1ccc2c(c1)C=C(C(=O)NCCCCN1CCN(c3ccccc3OC)CC1)CO2 quantitative_readout=0.417
chemical_structure=CS(=O)(=O)Nc1cccc(N2CCN(CCCCNC(=O)C3=Cc4cc(Cl)ccc4OC3)CC2)c1 quantitative_readout=0.0347
chemical_structure=O=C(NCCCCN1CCN(c2cccc3c2OCC3)CC1)C1=Cc2ccccc2OC1 quantitative_readout=0.141
chemical_structure=COc1ccc2c(c1)C=C(C(=O)NCCCCN1CCN(c3cccc(Cl)c3Cl)CC1)CO2 quantitative_readout=0.251
chemical_structure=N#Cc1cccc(N2CCN(CCCCNC(=O)C3=Cc4ccccc4SC3)CC2)c1 quantitative_readout=3.16

###

tested_system: α1-adrenergic receptor
test_details: inhibition of prazocine[3H] binding in rat brain tissue
Collected pKi α1 values appear next to each entry.
readout_kind: pKi α1

chemical_structure=O=C(NCCCCN1CCN(c2cccc(C(F)(F)F)c2)CC1)C1=Cc2ccccc2OC1 readout_kind="pKi α1" quantitative_readout=7.55
chemical_structure=O=C(NCCCCN1CCN(c2cccc(Cl)c2Cl)CC1)C1=Cc2ccccc2OC1 readout_kind="pKi α1" quantitative_readout=7.29
chemical_structure=CS(=O)(=O)Nc1cccc(N2CCN(CCCCNC(=O)C3=Cc4cc(Cl)ccc4OC3)CC2)c1 readout_kind="pKi α1" quantitative_readout=6.78
chemical_structure=O=C(NCCCCN1CCN(c2cccc3c2OCCO3)CC1)C1=Cc2ccccc2OC1 readout_kind="pKi α1" quantitative_readout=7.81
chemical_structure=O=C(NCCCCN1CCN(c2cccc(O)c2)CC1)C1=Cc2ccccc2SC1 readout_kind="pKi α1" quantitative_readout=7.08
chemical_structure=COc1ccc2c(c1)C=C(C(=O)NCCCCN1CCN(c3ccccc3OC)CC1)CO2 readout_kind="pKi α1" quantitative_readout=8.05
chemical_structure=O=C(NCCCCN1CCN(c2cccc3c2OCC3)CC1)C1=Cc2ccccc2OC1 readout_kind="pKi α1" quantitative_readout=7.84
chemical_structure=N#Cc1cccc(N2CCN(CCCCNC(=O)C3=Cc4ccccc4SC3)CC2)c1 readout_kind="pKi α1" quantitative_readout=7.32
chemical_structure=O=C(NCCCCN1CCN(c2cccc3[nH]ccc23)CC1)C1=Cc2ccccc2OC1 readout_kind="pKi α1" quantitative_readout=8.05
chemical_structure=O=C(NCCCCN1CCN(c2cccc3[nH]c(=O)oc23)CC1)C1=Cc2ccccc2OC1 readout_kind="pKi α1" quantitative_readout=8.44

###

tested_system: dopamine D3 receptor (Homo sapiens)
Construct: expressed in transfected cells
Sequence (P35462 whole entry): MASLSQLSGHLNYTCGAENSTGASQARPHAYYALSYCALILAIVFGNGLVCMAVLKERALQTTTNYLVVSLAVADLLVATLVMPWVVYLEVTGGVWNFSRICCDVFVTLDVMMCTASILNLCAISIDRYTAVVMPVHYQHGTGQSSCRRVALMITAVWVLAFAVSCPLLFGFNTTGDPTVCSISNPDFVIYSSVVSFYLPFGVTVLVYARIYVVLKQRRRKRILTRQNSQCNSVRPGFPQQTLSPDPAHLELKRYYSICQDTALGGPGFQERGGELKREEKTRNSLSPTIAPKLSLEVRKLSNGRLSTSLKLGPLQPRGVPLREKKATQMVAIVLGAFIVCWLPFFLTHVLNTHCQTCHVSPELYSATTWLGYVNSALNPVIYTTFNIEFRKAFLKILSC
test_details: inhibition of spiperone[3H] binding in CHO cells, dopamine D3 receptor
condition_context: read-out: pKi D3 (converted)
Collected Ki values appear next to each entry.
readout_kind: Ki (nM)

chemical_structure=O=C(NCCCCN1CCN(c2cccc3c2OCCO3)CC1)C1=Cc2ccccc2OC1 tested_system="dopamine D3 receptor (Homo sapiens)" readout_kind=Ki reading_unit=nM quantitative_readout=0.603
chemical_structure=O=C(NCCCCN1CCN(c2cccc(C(F)(F)F)c2)CC1)C1=Cc2ccccc2OC1 tested_system="dopamine D3 receptor (Homo sapiens)" readout_kind=Ki reading_unit=nM quantitative_readout=2.69
chemical_structure=CS(=O)(=O)Nc1cccc(N2CCN(CCCCNC(=O)C3=Cc4cc(Cl)ccc4OC3)CC2)c1 tested_system="dopamine D3 receptor (Homo sapiens)" readout_kind=Ki reading_unit=nM quantitative_readout=0.219
chemical_structure=O=C(NCCCCN1CCN(c2cccc(Cl)c2Cl)CC1)C1=Cc2ccccc2OC1 tested_system="dopamine D3 receptor (Homo sapiens)" readout_kind=Ki reading_unit=nM quantitative_readout=0.813
chemical_structure=N#Cc1cccc(N2CCN(CCCCNC(=O)C3=Cc4ccccc4SC3)CC2)c1 tested_system="dopamine D3 receptor (Homo sapiens)" readout_kind=Ki reading_unit=nM quantitative_readout=2.4
chemical_structure=COc1ccc2c(c1)C=C(C(=O)NCCCCN1CCN(c3ccccc3OC)CC1)CO2 tested_system="dopamine D3 receptor (Homo sapiens)" readout_kind=Ki reading_unit=nM quantitative_readout=0.537
chemical_structure=O=C(NCCCCN1CCN(c2cccc3c2OCC3)CC1)C1=Cc2ccccc2OC1 tested_system="dopamine D3 receptor (Homo sapiens)" readout_kind=Ki reading_unit=nM quantitative_readout=0.676
chemical_structure=COc1ccc2c(c1)C=C(C(=O)NCCCCN1CCN(c3cccc(Cl)c3Cl)CC1)CO2 tested_system="dopamine D3 receptor (Homo sapiens)" readout_kind=Ki reading_unit=nM quantitative_readout=0.794
chemical_structure=O=C(NCCCCN1CCN(c2cccc3[nH]ccc23)CC1)C1=Cc2ccccc2OC1 tested_system="dopamine D3 receptor (Homo sapiens)" readout_kind=Ki reading_unit=nM quantitative_readout=0.219
chemical_structure=O=C(NCCCCN1CCN(c2cccc3[nH]c(=O)oc23)CC1)C1=Cc2ccccc2OC1 tested_system="dopamine D3 receptor (Homo sapiens)" readout_kind=Ki reading_unit=nM quantitative_readout=0.0676
chemical_structure=O=C(NCCCCN1CCN(c2cccc(O)c2)CC1)C1=Cc2ccccc2SC1 tested_system="dopamine D3 receptor (Homo sapiens)" readout_kind=Ki reading_unit=nM quantitative_readout=0.661

###

Where a name gives a salt, the structure may show the parent alone.
Collected melting point values appear next to each entry.
readout_kind: melting point

compound="COc1ccc(Br)c2c1OCC(C(=O)NCCCCN1CCN(c3cccc(C#N)c3)CC1)=C2 (as salt: HCl) [Example 52]" result="155 °C"
compound="O=C(NCCCCN1CCN(c2ccccc2C(F)(F)F)CC1)C1=Cc2ccccc2OC1 (as salt: HCl) [Example 17]" result="161 °C"
compound="COc1cc(OC)cc(N2CCN(CCCCNC(=O)C3=Cc4ccccc4OC3)CC2)c1 (as salt: hydrochloride) [Example 23]" result="213 °C"
compound="O=C(NCCCCN1CCN(c2ccc(Cl)cc2)CC1)C1=Cc2ccccc2OC1 (as salt: HCl) [Example 5]" result="236 °C"
compound="COc1ccc2c(c1)C=C(C(=O)NCCCCN1CCN(c3ccccc3OC)CC1)CO2 (as salt: HCl) [Example 54]" result="165 °C"
compound="N#Cc1cccc(N2CCN(CCCCNC(=O)C3=Cc4cc(Cl)ccc4OC3)CC2)c1 (as salt: HCl) [Example 31]" result="120 °C (dec.)"
compound="O=C(NCCCCN1CCN(c2cccc(Cl)c2Cl)CC1)C1=Cc2ccccc2OC1 (as salt: hydrochloride) [Example 2]" result="201 °C"

###

Where a name gives a salt, the structure may show the parent alone.
Label Not met if melting point falls below 200 °C; label Met in every other case.

compound="O=C(NCCCCN1CCN(c2ccccc2)CC1)C1=Cc2ccccc2OC1 (as salt: HCl)" label_value=Met
compound="COc1ccc(Br)c2c1OCC(C(=O)NCCCCN1CCN(c3ccccc3F)CC1)=C2 (as salt: hydrochloride)" label_value="Not met"
compound="COc1ccccc1N1CCN(CCCCNC(=O)C2=Cc3ccccc3OC2)CC1 (as salt: hydrochloride)" label_value=Met
compound="Cc1ccc(N2CCN(CCCCNC(=O)C3=Cc4ccccc4OC3)CC2)c(C)c1 (as salt: HCl)" label_value=Met
compound="COc1ccccc1N1CCN(CCCCNC(=O)C2=Cc3c(Br)ccc(OC)c3OC2)CC1 (as salt: HCl)" label_value="Not met"
compound="O=C(NCCCCN1CCN(c2cccc(Cl)c2Cl)CC1)C1=Cc2ccccc2SC1 (as salt: HCl)" label_value=Met
compound="O=C(NCCCCN1CCN(c2ccccc2F)CC1)C1=Cc2cc(Cl)ccc2OC1 (as salt: HCl)" label_value=Met
compound="O=C(NCCCCN1CCN(c2ccccc2F)CC1)C1=Cc2ccccc2OC1 (as salt: HCl)" label_value=Met
compound="O=C(NCCCCN1CCN(c2cccc(C(F)(F)F)c2)CC1)C1=Cc2ccccc2OC1 (as salt: HCl)" label_value=Met
compound="CCOC(=O)c1cccc(N2CCN(CCCCNC(=O)C3=Cc4ccccc4OC3)CC2)c1 (as salt: hydrochloride)" label_value=Met
compound="O=C(NCCCCN1CCN(c2ccc(O)cc2)CC1)C1=Cc2ccccc2OC1 (as salt: HCl)" label_value=Met
compound="Cc1ccccc1N1CCN(CCCCNC(=O)C2=Cc3ccccc3OC2)CC1 (as salt: HCl)" label_value="Not met"
compound="O=C(NCCCCN1CCN(c2ccc([N+](=O)[O-])cc2)CC1)C1=Cc2ccccc2OC1 (as salt: HCl)" label_value=Met
compound="N#Cc1cccc(N2CCN(CCCCNC(=O)C3=Cc4ccccc4OC3)CC2)c1 (as salt: hydrochloride)" label_value=Met
compound="COc1ccccc1N1CCN(CCCCNC(=O)C2=Cc3cc(Cl)ccc3OC2)CC1 (as salt: HCl)" label_value="Not met"
compound="O=C(NCCCCN1CCN(c2cccc(Cl)c2)CC1)C1=Cc2ccccc2OC1 (as salt: HCl)" label_value=Met
compound="COc1ccccc1N1CCN(CCCCNC(=O)C2=Cc3ccccc3SC2)CC1 (as salt: HCl)" label_value=Met
compound="O=C(NCCCCN1CCN(c2cccc(Cl)c2Cl)CC1)C1=Cc2cc(Cl)ccc2OC1 (as salt: hydrochloride)" label_value=Met
compound="CCOC(=O)c1ccc(N2CCN(CCCCNC(=O)C3=Cc4ccccc4OC3)CC2)cc1 (as salt: hydrochloride)" label_value=Met
